All figures here come from patent US20180072997A1.

Listed below: CC50 at 4 days values for each entry.
assay: Compound cytotoxicity, XTT-based colorimetric assay; format: cell-based; conditions: human, uninfected MT2 cells, day 4, XTT
ASSAY METRIC: CC50 at 4 days (µM)

>>> value_observed("Cc1cc(F)cc(N(C)C(=O)[C@H](Cc2ccccc2)NC(=O)NS(=O)(=O)N[C@@H](Cc2ccccc2)C(=O)N(C)c2cc(C)cc(F)c2)c1 [Example 224]")
46
>>> value_observed("CN(C(=O)[C@H](Cc1cc(F)cc(F)c1)NC(=O)c1c(F)c(F)c(F)c(C(=O)N[C@@H](Cc2cc(F)cc(F)c2)C(=O)N(C)c2ccc3scnc3c2)c1F)c1ccc2scnc2c1 [Example 81]")
2.8
>>> value_observed("CN(C(=O)[C@H](Cc1ccccc1)NC(=O)c1ccc(F)c(C(=O)N[C@@H](Cc2ccccc2)C(=O)N(C)c2ccc3scnc3c2)c1)c1ccc2scnc2c1 [Example 169]")
4.5
>>> value_observed("CN(C(=O)[C@H](Cc1ccccc1)NC(=O)CS(=O)(=O)N[C@@H](Cc1ccccc1)C(=O)N(C)c1ccc2scnc2c1)c1ccc2scnc2c1 [Example 65]")
34.6
